# pEC50 per entry
# Test target: 5HT2C receptors (Homo sapiens, UniProt P28335)
# Sequence (P28335 33-458): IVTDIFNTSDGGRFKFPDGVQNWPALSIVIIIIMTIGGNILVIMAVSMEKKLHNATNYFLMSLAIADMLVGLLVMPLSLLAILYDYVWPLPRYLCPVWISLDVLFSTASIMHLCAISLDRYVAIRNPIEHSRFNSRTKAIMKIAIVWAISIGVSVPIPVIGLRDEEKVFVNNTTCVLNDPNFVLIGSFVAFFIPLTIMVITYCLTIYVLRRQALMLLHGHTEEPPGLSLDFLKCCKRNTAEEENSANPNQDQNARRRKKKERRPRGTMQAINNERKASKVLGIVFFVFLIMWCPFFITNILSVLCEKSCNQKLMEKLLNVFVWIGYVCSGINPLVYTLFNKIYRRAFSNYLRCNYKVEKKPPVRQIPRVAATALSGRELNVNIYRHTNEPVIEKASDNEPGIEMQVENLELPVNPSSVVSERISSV
# Protocol text: Human 5-HT2C functional assay in CHO-K1 cells (calcium flux, FLIPR)
# Assay type: cell-based
# Set-up: expressed in transfected cells; host or cells: CHO-K1 cells
# Description: (iii) Human 5-HT2C and 5-HT2B Functional Assay in CHO-K1 Cells […] Fluorescence measurements were read at 25° C. at an excitation wavelength of 480 nm and an emission wavelength of 530 nm in FLIPR (MDS). Baseline fluorescence was measured for the first 10 seconds and then 15 μL of 4× concentrations of serotonin/test compounds was added to the cell plate. The fluorescence intensity was captured every second for the first 1 minute followed by every 5 seconds for an additional 2 minutes. […]
pEC50: −log10 of the molar value.
Observable: pEC50

Compound | Observable | Observed measurement
O=C1C[C@H]2CNCCN2c2c(F)cccc2N1 | pEC50 | 8.10
c1ccc2c(c1)CCCC1CNCCN21 (stereo not shown) | pEC50 | 8.15
Clc1ccc2c(c1)N1CCNC[C@@H]1CCO2 | pEC50 | 9.30
CCc1ccc2c(c1)N1CCNC[C@@H]1CCO2 | pEC50 | 7.70

# credit: patent US8546377B2
